System: MDA-MB-231
assay method text: NCI tumour cell line growth inhibition, 48 h
The source made the active and inactive calls. No stated cut-off is given here; in the data, active = GI50 up to about 1.1 µM and inactive = higher.
Answer with one of the outcomes Yes (active), No (inactive)

compound	target desc	answer label
CCC(C(=O)c1ccc(OC)c(OC)c1)N(C(=O)C(F)(F)F)C(C)c1ccccc1 (stereo unspecified)	MDA-MB-231	No
Sc1nc2c(c(-c3nc(S)nc4c3CCCCCCCCCC4)n1)CCCCCCCCCC2	MDA-MB-231	No
CCC(CCCCC1CC[C@H]2CC(=O)C[C@@H]12)OC (stereo partly specified)	MDA-MB-231	No
COc1cc(/C=C2/SC(c3ccccc3)N(c3ccc(Cl)cc3)C2=O)cc(OC)c1OC (stereo unspecified)	MDA-MB-231	No
COc1ccc2cc(C(=O)NCCCNC(=O)c3ccc4c(OC)c(OC)ccc4c3)ccc2c1OC	MDA-MB-231	No

What was the test verdict on `COc1ccc2nc3n(c2c1)CCc1cc(OC)c(OC)cc1-3` ?
No

What was the test verdict on `Cn1c2ccc(C3=NCCN3)cc2c2cc(C3=NCCN3)ccc21` ?
No

What was the test verdict on `CC(=O)OC(C)(C)/C=C/C(=O)[C@](C)(O)[C@H]1[C@H](O)C[C@@]2(C)[C@@H]3CC=C4[C@@H](C=C(O)C(=O)C4(C)C)[C@]3(C)C(=O)C[C@]12C` ?
Yes

What was the test verdict on `CSc1c(C(=O)Nc2ccccc2)c(N)nn1-c1ccccc1` ?
No

What was the test verdict on C=C[C@]1(C)CC(O)C2C(=C)C(=O)OC2[C@H]1C(=C)C=O (stereo partly specified) ?
No

What was the test verdict on CC(C)CC(C(N)=O)C(=O)NC(Cc1ccccc1)NC(=O)CNC(=O)C(C)NC(=O)C(N)Cc1ccc(O)cc1 (stereo unspecified) ?
No

What was the test verdict on COc1ccc(CC(C#N)c2cc(OC)c(OC)c(OC)c2)cc1 (stereo unspecified) ?
Yes

What was the test verdict on `COc1cc2c(NCCCCCCO[N+](=O)[O-])ncnc2c(OC)c1OC` ?
No

What was the test verdict on `O=C1c2cccnc2-c2nccc3c2c1nc1ccccc13` ?
Yes

What was the test verdict on `O=[N+]([O-])c1cc(F)ccc1S(=O)(=O)c1ccccc1` ?
No

What was the test verdict on `C/C(=N\NC(=S)N1CCN(C2CCCCCC2)CC1)c1ccccn1` ?
No

What was the test verdict on `O=[N+]([O-])c1ccc(-c2cn(-c3ccc(Cl)cc3)cn2)cc1` ?
No
